This collection of values is drawn from patent US4820722A.

measurement target: UniProtKB Q2NNR5
Sequence (Q2NNR5 whole entry): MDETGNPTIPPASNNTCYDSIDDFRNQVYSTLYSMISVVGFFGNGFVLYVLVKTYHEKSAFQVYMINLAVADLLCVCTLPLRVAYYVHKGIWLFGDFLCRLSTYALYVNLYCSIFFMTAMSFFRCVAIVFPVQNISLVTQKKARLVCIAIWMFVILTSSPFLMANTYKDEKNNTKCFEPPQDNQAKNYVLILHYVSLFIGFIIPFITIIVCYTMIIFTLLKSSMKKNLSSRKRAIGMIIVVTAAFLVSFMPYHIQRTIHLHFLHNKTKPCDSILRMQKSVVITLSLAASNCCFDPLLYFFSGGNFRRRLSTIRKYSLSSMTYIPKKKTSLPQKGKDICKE
procedure text: LTD4 antagonism, cumulative LTD4 concentration-response curves in guinea pig ileum and trachea (KB by Furthgott method)
Type: cell-based, guinea pig (male Hartley)
measurement parameters: 30 minute incubation with antagonist, Table I title names ileal contractions
measurement type: pKB (negative log of the dissociation KB)

compound	assay result
CCCc1c(COc2ccc(Cc3nnn(CCCCCc4nnn[nH]4)n3)cc2)ccc(C(C)=O)c1O.[Na]	7.64
CCCc1c(COc2ccc(Cc3nnn(CCCSC)n3)cc2)ccc(C(C)=O)c1O	6.45
CCCc1c(COc2ccc(Cc3nnn(CCC[S+](C)[O-])n3)cc2)ccc(C(C)=O)c1O (stereo not shown)	6.50
CCCc1c(COc2ccc(Cc3nnn(CCC(C)(C)Cc4nnn[nH]4)n3)cc2)ccc(C(C)=O)c1O	7.70
